procedure-details: molar heat capacity at constant pressure
test-settings: 303.15 K; 101.3 kPa; Liquid; Small sample (50 mg) DSC
measure-name: molar heat capacity at constant pressure (J/K/mol)
A number alone suffices; assume J/K/mol.

## Input Would you kindly share the measured molar heat capacity at constant pressure for O ?
## Output 75

## Input Would you kindly share the measured molar heat capacity at constant pressure for CCn1cc[n+](C)c1.O=S(=O)([O-])C(F)(F)F [1-ethyl-3-methylimidazolium trifluoromethanesulfonate] ?
## Output 366

## Input Would you kindly share the measured molar heat capacity at constant pressure for CCOS(=O)(=O)[O-].CCn1cc[n+](C)c1 [1-ethyl-3-methylimidazolium ethyl sulfate] ?
## Output 380

Alright, here's another compound for you.
## Input Would you kindly share the measured molar heat capacity at constant pressure for CCn1cc[n+](C)c1.O=C([O-])C(F)(F)F [1-ethyl-3-methylimidazolium trifluoroacetate] ?
## Output 320
